Values were extracted from paper PMC12210912.

protocol details: stability in human liver microsomes
Format: in vitro ADME
measurement conditions: both sexes, microsomes, pH 7.4, HLM stability t1/2
property: half-life at 1 µM (min)

{"compound": "CC(C)(C)c1ccc(C(C)(C)C)c(NC(=O)C2CCC3C4CNC5=CC(=O)CC[C@]5(C)C4CC[C@]23C)c1 (stereo partly shown) [Compound 1]", "property": "half-life at 1 µM", "observed": 45}

====

protocol details: in vivo pharmacokinetics in CD1 male mice
measurement conditions: mouse, plasma, 1 mg/kg IV
Listing of recorded Tmax by entry.
property: Tmax

{"compound": "CC(C)(C)c1ccc(C(C)(C)C)c(NC(=O)C2CCC3C4CNC5=CC(=O)CC[C@]5(C)C4CC[C@]23C)c1 (some centres unmarked)", "observed": "0.642 h"}
{"compound": "C[C@]12CCC3C(CNC4=CC(=O)CC[C@@]43C)C1CCC2C(=O)NC(c1ccc(F)cc1)c1ccc(F)cc1 (some centres unmarked)", "observed": "2.6 h"}
